// reported Barnyardgrass plant response rating for each item listed
# Test system: barnyardgrass
# assay.summary: Test F preemergence test
# Type: in vivo, Echinochloa crus-galli
# condition.notes: 62 g ai/ha, Preemergence; scale 0 to 100

{"molecule": "CCc1cc[n+]([O-])c(S(=O)(=O)Cc2c(C(F)(F)F)nn(C)c2OCC(F)(F)F)c1", "Barnyardgrass plant response rating": 100}
{"molecule": "Cn1nc(C(F)(F)F)c(CS(=O)(=O)c2cccc[n+]2[O-])c1OC(F)F", "Barnyardgrass plant response rating": 80}
{"molecule": "Cc1cc[n+]([O-])c([S+]([O-])Cc2c(C(F)(F)F)nn(C)c2Cl)c1 (racemic)", "Barnyardgrass plant response rating": 90}
{"molecule": "Cc1cc[n+]([O-])c(S(=O)(=O)C(C)c2c(C(F)(F)F)nn(C)c2OC(F)F)c1 (stereo not drawn)", "Barnyardgrass plant response rating": 95}
{"molecule": "Cn1nc(C(F)(F)F)c(C[S+]([O-])c2cccc[n+]2[O-])c1Cl (stereo not drawn)", "Barnyardgrass plant response rating": 95}
{"molecule": "Cn1nc(C(F)(F)F)c(C[S+]([O-])c2cccc[n+]2[O-])c1OCC(F)(F)F (racemic)", "Barnyardgrass plant response rating": 100}

###

# Test system: morningglory
# assay.summary: Test C pre-/postemergence test
# Format: in vivo, Ipomoea coccinea
# condition.notes: Preemergence, 31 g ai/ha; scale 0 to 100 (0 no effect, 100 complete control)
measured.property: Plant response rating, Morningglory

{"compound": "CC(Oc1c(C[S+]([O-])c2cccc[n+]2[O-])c(C(F)(F)F)nn1C)C(F)(F)F (centres unmarked)", "measured.property": "Plant response rating, Morningglory", "recorded.number": 60}
{"compound": "C#CCOc1c(CS(=O)(=O)c2cccc[n+]2[O-])c(C(F)(F)F)nn1C", "measured.property": "Plant response rating, Morningglory", "recorded.number": 0}
{"compound": "Cc1cc[n+]([O-])c(S(=O)(=O)Cc2c(C(F)(F)C(F)(F)F)nn(C)c2OCC(F)(F)F)c1", "measured.property": "Plant response rating, Morningglory", "recorded.number": 65}
{"compound": "[O-][n+]1cc(Cl)ccc1[S+]([O-])Cc1c(C(F)(F)F)nn(CC(F)(F)F)c1Cl (centres unmarked)", "measured.property": "Plant response rating, Morningglory", "recorded.number": 100}
{"compound": "Cn1nc(C(F)(F)F)c(C[S+]([O-])c2ccc(Cl)c[n+]2[O-])c1Cl (racemic)", "measured.property": "Plant response rating, Morningglory", "recorded.number": 0}
{"compound": "Cn1nc(C(F)(F)F)c(CS(=O)(=O)c2cccc[n+]2[O-])c1OCC(F)F", "measured.property": "Plant response rating, Morningglory", "recorded.number": 0}
{"compound": "Cc1cc[n+]([O-])c(S(=O)(=O)Cc2c(C(F)(F)F)nn(C)c2OCC(F)F)c1", "measured.property": "Plant response rating, Morningglory", "recorded.number": 30}
{"compound": "CC(c1c(C(F)(F)F)nn(CC(F)(F)F)c1Cl)[S+]([O-])c1cccc[n+]1[O-] (centres unmarked)", "measured.property": "Plant response rating, Morningglory", "recorded.number": 100}

###

# Test system: yellow nutsedge
# assay.summary: Test C pre-/postemergence test
# Format: in vivo, Cyperus esculentus
# condition.notes: 125 g ai/ha, preemergence; scale 0 (no effect) to 100 (complete control)

{"compound": "CCc1cc[n+]([O-])c([S+]([O-])Cc2c(C(F)(F)F)nn(C)c2OCC(F)(F)F)c1 (stereo not shown)", "test.target": "yellow nutsedge", "Nutsedge, Yellow plant response rating": 85}
{"compound": "Cn1nc(C(F)(F)F)c(C[S+]([O-])c2cc(Cl)cc[n+]2[O-])c1Cl (racemic)", "test.target": "yellow nutsedge", "Nutsedge, Yellow plant response rating": 85}
{"compound": "Cn1nc(C(F)(F)C(F)(F)F)c(C[S+]([O-])c2ccc(Cl)c[n+]2[O-])c1OCC(F)(F)F (stereo not shown)", "test.target": "yellow nutsedge", "Nutsedge, Yellow plant response rating": 90}
{"compound": "Cc1cc[n+]([O-])c(S(=O)(=O)Cc2c(C(F)(F)F)nn(C)c2OCC(F)F)c1", "test.target": "yellow nutsedge", "Nutsedge, Yellow plant response rating": 60}
